test system: A549; experiment: Anticancer activity against human A549 cells assessed as cell growth inhibition measured for 72 hrs by MTT assay; format: functional, cell-based; conditions: A549, 72 h
# Lookup of reported pIC50 keyed by entry
# pIC50 is unitless: minus log10 of the molar concentration; print number only

C=C(c1ccc(OC)c(F)c1)C1COC(C)(C)OO1 (stereo not drawn) ... 4.00

--- query ---
Q: # input molecule: C=C(c1ccc(Cl)c(Cl)c1)C1COC2(OO1)C1CC3CC(C1)CC2C3 (stereo not drawn) ; wanted: its pIC50
A: 5.53

###

assay: Selectivity ratio of IC50 for anticancer activity against human BEAS-2B cells to IC50 for anticancer activity against human A549 cells; format: toxicity, cell-based; conditions: BEAS-2B cells versus A549 cells, read-out: Ratio IC50
Would you please tag the item 1.0 when its selectivity ratio is 6 or above, and 0.0 when it is below?

For orientation, consider the following solved cases.
C=C(c1ccc(F)cc1F)C1COC2(CCCC2)OO1 (stereo not drawn) ... 1.0
C=C(c1ccc(Cl)cc1Cl)C1COC(C)(C)OO1 (stereo not drawn) ... 0.0
C=C(c1cc(Cl)cc(Cl)c1OCc1ccccc1)C1COC(C)(C)OO1 (stereo not drawn) ... 0.0
C=C(c1cc(Cl)cc(Cl)c1OCc1ccccc1)C1COC2(CCCC2)OO1 (stereo not drawn) ... 0.0
C=C(c1ccc(Cl)c(Cl)c1)C1COC2(CCCC2)OO1 (stereo not drawn) ... 1.0
C=C(c1ccc(Cl)c(Cl)c1Cl)C1COC2(CCCC2)OO1 (stereo not drawn) ... 1.0
C=C(c1ccc(F)c(F)c1)C1COC2(OO1)C1CC3CC(C1)CC2C3 (stereo not drawn) ... 1.0
C=C(c1ccc(F)c(F)c1)C1COC2(CCCC2)OO1 (stereo not drawn) ... 1.0

Q: Is it the case that C=C(c1ccc(Cl)cc1Cl)C1COC2(OO1)C1CC3CC(C1)CC2C3 (stereo not drawn) has selectivity ratio reaching or exceeding 6?
A: 0.0

Q: Is it the case that C=C(c1ccc(Cl)cc1Cl)C1COC2(CCCCC2)OO1 (stereo not drawn) has selectivity ratio reaching or exceeding 6?
A: 1.0

Q: Is it the case that C=C(c1ccc(Cl)c(Cl)c1)C1COC2(CCCCC2)OO1 (stereo not drawn) has selectivity ratio reaching or exceeding 6?
A: 0.0

Q: Is it the case that C=C(c1ccc(OC)c(F)c1)C1COC2(OO1)C1CC3CC(C1)CC2C3 (stereo not drawn) has selectivity ratio reaching or exceeding 6?
A: 0.0

Q: Is it the case that C=C(c1ccc(OC)c(F)c1)C1COC2(CCCC2)OO1 (stereo not drawn) has selectivity ratio reaching or exceeding 6?
A: 0.0

Q: Is it the case that C=C(c1ccc(Cl)c(Cl)c1Cl)C1COC(C)(C)OO1 (stereo not drawn) has selectivity ratio reaching or exceeding 6?
A: 0.0

Q: Is it the case that C=C(c1ccc(F)cc1F)C1COC2(OO1)C1CC3CC(C1)CC2C3 (stereo not drawn) has selectivity ratio reaching or exceeding 6?
A: 1.0

Q: Is it the case that C=C(c1ccc(Cl)c(Cl)c1)C1COC2(OO1)C1CC3CC(C1)CC2C3 (stereo not drawn) has selectivity ratio reaching or exceeding 6?
A: 1.0

Q: Is it the case that C[C@@H]1CC[C@H]2[C@@H](C)C(=O)O[C@@H]3O[C@@]4(C)CC[C@@H]1[C@]32OO4 [ARTEMISININ] has selectivity ratio reaching or exceeding 6?
A: 0.0

Just for reference, ChEMBL document CHEMBL5053494 is where these values come from.
